- Target or system: human NMBR (Homo sapiens)
- Sequence (P28336 whole entry): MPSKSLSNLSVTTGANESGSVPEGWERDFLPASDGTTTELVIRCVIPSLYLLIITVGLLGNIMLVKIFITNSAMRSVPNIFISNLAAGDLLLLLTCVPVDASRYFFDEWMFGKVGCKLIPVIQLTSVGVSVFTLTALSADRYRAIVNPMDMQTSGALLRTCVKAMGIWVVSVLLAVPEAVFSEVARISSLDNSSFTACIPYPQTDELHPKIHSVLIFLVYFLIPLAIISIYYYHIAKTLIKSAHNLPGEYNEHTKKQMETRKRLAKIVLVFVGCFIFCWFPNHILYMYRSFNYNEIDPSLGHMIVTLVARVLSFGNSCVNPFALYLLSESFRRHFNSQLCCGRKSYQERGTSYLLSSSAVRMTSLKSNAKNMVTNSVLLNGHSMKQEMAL
- Measurement notes: [3H]Inositol phosphate generation, hNMBR/BALB cells
- Assay type: cell-based
- Condition label: read-out: EC50 Human NMBR hNMBR/BALB; [3H]IP production, 60 min, 37°C
Reported property: EC50

Smiles	EC50
CC(C)COc1cccc(CC(=O)N2CCNc3nc(C(F)(F)F)ccc3[C@H]2CC(=O)O)c1	> 3000 nM

Now for the molecule whose EC50 we want.
Enquiry: For the molecule `Cc1ccc(Oc2cccc(CC(=O)N3CCNc4nc(C(F)(F)F)ccc4[C@H]3CC(=O)O)c2)cn1` , what EC50 is on record?
Return: > 3000 nM
